target: B.1.351 Spike (SARS-CoV2)
Kd less than 0.4 nM is yes; Kd greater than or equal to 0.4 nM is no.

// known answers, use as guide
>>> classlabel("S1-R3-T1-C4 (Ab_8) scFv-Fc (scFv, V domains shown) VH: QVQLVQSGAEVKKPGSSVKVSCKASGGTFSSYAISWLRQAPGQGLEWMGWINPNSGGTNYAQKFQGRVTMTRDTSISTAYMELSRLRSDDTAVYYCARGSGGYYLGWGQGTLVTVSS VL: QPGLTQPPSVSKGLRQTATLTCTGNSNNVGNQGAAWLQQHQGHPPKLLSYMNNNRPPGISERFSASRSGNTASLTITGLQPEDEADYYCSAWDSSLSRWVFGGGTKLSVL")
"no"
>>> classlabel("Ab_21 scFv-Fc (scFv, V domains shown) VH: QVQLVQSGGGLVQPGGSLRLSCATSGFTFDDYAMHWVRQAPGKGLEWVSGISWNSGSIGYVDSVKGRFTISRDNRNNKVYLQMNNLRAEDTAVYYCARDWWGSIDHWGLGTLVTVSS VL: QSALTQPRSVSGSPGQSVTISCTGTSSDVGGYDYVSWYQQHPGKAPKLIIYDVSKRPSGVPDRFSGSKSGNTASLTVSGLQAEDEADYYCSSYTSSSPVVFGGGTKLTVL")
"yes"
>>> classlabel("Ab_13 scFv-Fc (scFv, V domains shown) VH: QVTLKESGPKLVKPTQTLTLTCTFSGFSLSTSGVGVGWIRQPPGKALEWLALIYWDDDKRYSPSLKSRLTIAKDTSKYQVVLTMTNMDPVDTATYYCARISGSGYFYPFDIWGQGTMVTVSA VL: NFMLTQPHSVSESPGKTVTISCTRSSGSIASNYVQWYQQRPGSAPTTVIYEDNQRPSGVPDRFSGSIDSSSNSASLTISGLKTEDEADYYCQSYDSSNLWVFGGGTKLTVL")
"no"
>>> classlabel("Ab_17 scFv-Fc (scFv, V domains shown) VH: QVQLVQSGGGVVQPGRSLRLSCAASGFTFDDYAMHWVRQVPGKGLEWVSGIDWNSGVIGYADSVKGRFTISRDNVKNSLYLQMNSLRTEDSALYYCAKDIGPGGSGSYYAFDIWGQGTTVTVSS VL: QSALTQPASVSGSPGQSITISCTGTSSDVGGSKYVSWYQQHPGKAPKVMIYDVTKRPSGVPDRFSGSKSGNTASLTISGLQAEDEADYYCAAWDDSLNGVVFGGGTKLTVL")
"no"
>>> classlabel("S1-RBD-R3-T1-F5 (Ab2-7) scFv-Fc (scFv, V domains shown) VH: QVTLKESGPTRVKPTQTLTLTCTFSGFSLSTTGVGVGWIRQPPGKALEWLALIYWNDDKRYSPSLKSRLTITKDTSKNQVVLTMTNMDPVDTATYYCARISGSGYFYPFDIWGQGTTVTVSS VL: NFMLTQPHSVSESPGKTVTISCTRSSGSIASNYVQWYQQRPGSSPTTVIYEDNQRPSGVPDRFSGSIDSSSNSASLTISGLKAEDEADYYCQSYDSSSLWVFGGGTKLTVL")
"yes"

## Task Please determine if Ab_25 scFv-Fc (scFv, V domains shown) VH: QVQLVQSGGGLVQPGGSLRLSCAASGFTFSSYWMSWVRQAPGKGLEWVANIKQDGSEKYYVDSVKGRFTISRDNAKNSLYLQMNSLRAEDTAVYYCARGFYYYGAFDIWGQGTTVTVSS VL: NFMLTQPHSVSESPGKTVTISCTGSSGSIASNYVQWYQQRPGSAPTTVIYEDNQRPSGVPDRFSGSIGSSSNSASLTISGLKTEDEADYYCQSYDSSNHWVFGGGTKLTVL is below 0.4 nM in terms of Kd.
## Result yes

## Task State whether 0.4 nM exceeds Kd recorded for Ab_19 scFv-Fc (scFv, V domains shown) VH: EVQLVESGAEVKKPGESLKISCKGSGYSFTSYWIGWVRQMPGKGLEWMGIIYPGDSDTRYSPSFQGQVTISADKSISTAYLQWSSLKASDTAMYYCARRGDLDAFDIWGQGTMVTVSS VL: QPGLTQPPAASGTPGQRVTVSCSGASANIGSNAVSWFKQFPETAPRLLISGNTHRPSGVPDRVSGSKSGTSASLTISGLQSDDEADYYCAAWDDSLNGYVFGSGTKVTVL .
## Result yes

## Task Given Ab_20 scFv-Fc (scFv, V domains shown) VH: QVQLVQSGGGSVKPGGSLRLSCAASGYRLSDYYMHWVRQAPGKGLEWVANIKQDGSEKYYVDSVKGRFTISRDNAKNSLYLQMNSLRAEDTAVYYCARVRGWSRGYFDYWGQGTLVTVSS VL: NFMLTQPHSVSESPGKTVTISCTGSSGSIASNYVQWYQQRPGSAPTTVIYEDNQRPSGVPDRFSGSIDSSSNSASLLISGLKTEDEADYYCQSYDSSNHWVFGGGTKLTVL , is recorded Kd strictly lower than 0.4 nM?
## Result yes

## Task Quick check: Kd of Ab_23 scFv-Fc (scFv, V domains shown) VH: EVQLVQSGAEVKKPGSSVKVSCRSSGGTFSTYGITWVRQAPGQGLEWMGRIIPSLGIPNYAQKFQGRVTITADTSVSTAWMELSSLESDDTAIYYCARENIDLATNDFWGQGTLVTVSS VL: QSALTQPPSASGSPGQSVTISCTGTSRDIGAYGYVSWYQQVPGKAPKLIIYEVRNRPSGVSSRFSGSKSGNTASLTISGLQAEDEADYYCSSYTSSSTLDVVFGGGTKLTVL under 0.4 nM?
## Result yes

## Task A record lists Ab_26 scFv-Fc (scFv, V domains shown) VH: QVQLVQSGGGLVQPGRSLRLSCAASGFTFDDYAMHWVRQVPGKGLEWVSGIDWNSGVIGYADSVKGRFTISRDNAKNSLYLQMNSLRAEDTALYYCAKDAYSYGFLGAFDIWGQGTMVTVSS VL: LPVLTQPPSVSVAPGQTASITCGGDNIRTKGVHWYQQKPGQAPLLVIYYASDRPSGIPERFSGSSSGNTATLTISRVEAGDEADYYCQVWDSSSDLVVFGGGTTLTVL . Is its Kd below 0.4 nM?
## Result yes
